Reference source: patent US12195427B2

Tested on: Lectin Pathway
Test: Lectin Pathway Activation Assay in Human Serum (mannan-coated ELISA, C3c detection)
Assay type: biochemical
Conditions: 1% human serum
pIC50: −log10 of the molar value. Where a name gives a salt, the structure may show the parent alone.
assay metric: pIC50

# example entries with known answers
| compound | pIC50 |
| --- | --- |
| C[C@H](NC(=O)[C@H]1C[C@@H](c2ccccc2)CCN1)C(=O)NCc1ccc(C(=N)N)cc1 (stereo in doubt) [compound 1065] | > 7.30 |
| Cc1cc(Cl)cc(CNC(=O)[C@H](C)NC(=O)[C@H]2C[C@H](Cc3ccccc3)CN2)c1O | 6.30 to 7.30 |
| C[C@H](NC(=O)[C@H]1C[C@@H](c2ccccc2)CCN1)C(=O)NCc1ccc(C(=N)N)cc1 [compound 1230, Dihydrochloride] | > 7.30 |
| Cc1nc(N)ccc1CNC(=O)[C@H](C)NC(=O)[C@H]1C[C@H](Cc2ccccc2)CN1 | 6.30 to 7.30 |
| C[C@H](NC(=O)[C@H]1C[C@H](Cc2ccccc2)CN1)C(=O)NCc1cnc2[nH]cc(Cl)c2c1 | 6.30 to 7.30 |

For each of the items listed, what is its pIC50?
1. C[C@H](NC(=O)[C@H]1C[C@H](Cc2ccc(-c3ccccc3)cc2)CN1)C(=O)NCc1cnc2[nH]cc(Cl)c2c1
2. C[C@H](NC(=O)[C@H]1C[C@H](c2ccccc2)CN1)C(=O)NCc1ccc2c(N)nccc2c1
3. Cc1nc(N)ccc1CNC(=O)[C@H](C)NC(=O)[C@H]1C[C@H](Cc2ccc(-c3ccccc3)cc2)CN1
4. Cc1nc(N)ccc1CNC(=O)[C@H](C)NC(=O)[C@H]1C[C@H](Cc2ccc3ccccc3c2)CN1
5. C[C@H](NC(=O)c1cc(-c2ccccc2)c[nH]1)C(=O)NCc1ccc(C(=N)N)cc1
6. COc1cc(C[C@@H]2CN[C@@H](C(=O)N[C@@H](C)C(=O)NCc3cc(Cl)ccc3-n3cnnn3)C2)cc(OC)c1 [compound 1419, Trifluoroacetate salt]

1. 6.30 to 7.30
2. 5.30 to 6.30
3. > 7.30
4. 6.30 to 7.30
5. 5.30 to 6.30
6. > 7.30

====

Provide the recorded d(H4,O2) for the entries that follow.
Target: MASP-2 CCP2-SP (Homo sapiens (Human), UniProt O00187)
Sequence (O00187 445-686): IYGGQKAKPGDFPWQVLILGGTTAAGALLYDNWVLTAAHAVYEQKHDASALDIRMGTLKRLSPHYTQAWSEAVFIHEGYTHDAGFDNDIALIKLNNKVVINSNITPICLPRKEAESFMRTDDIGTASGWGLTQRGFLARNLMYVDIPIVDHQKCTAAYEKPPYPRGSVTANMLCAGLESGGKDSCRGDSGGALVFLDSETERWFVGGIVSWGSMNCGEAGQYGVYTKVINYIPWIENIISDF
Sequence (O00187 364-432 partner): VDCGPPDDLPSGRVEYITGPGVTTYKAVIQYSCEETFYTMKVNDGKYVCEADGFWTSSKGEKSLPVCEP
Experiment: MASP-2 co-crystallization, X-ray crystallography and structure analysis (H-bonds, van der Waals contacts)
Set-up: unit not given beside the values
Details: Table A5-1 pharmacophore: distance between elements, S2/S1 region
Where a name gives a salt, the structure may show the parent alone.
Give bare numbers.

Please review the following examples before continuing.
| compound | d(H4,O2) |
| --- | --- |
| Cc1nc(N)ccc1CNC(=O)[C@H](C)NC(=O)[C@H]1C[C@H](Cc2ccccc2Br)CN1.O=C(O)C(F)(F)F.O=C(O)C(F)(F)F [1372_B] | 3.91 |
| Cc1nc(N)ccc1CNC(=O)[C@H](C)NC(=O)[C@H]1C[C@H](Cc2ccc3ccccc3c2)CN1 | 3.75 |
| Cc1nc(N)ccc1CNC(=O)[C@H](C)NC(=O)[C@H]1C[C@@H](c2ccccc2)CCN1 [compound 1253, Dihydrochloride] | 3.69 |
| Cc1nc(N)ccc1CNC(=O)[C@H](C)NC(=O)[C@H]1C[C@H](Cc2cccc(Cl)c2)CN1.Cl.Cl [1328_4] | 2.53 |

Dear colleague, could you please provide d(H4,O2) for the compounds listed below?
1. C[C@H](NC(=O)[C@H]1Cc2c([nH]c3ccccc23)CN1)C(=O)NCc1ccc(C(=N)N)cc1.Cl.Cl [1097_2]
2. O=c1oc(-c2ccccc2[N+](=O)[O-])nc2ccccc12

1: 4.28; 2: 3.13
